- system under test: human Nav1.1 (Homo sapiens, UniProt P35498)
- Construct: host or cells: HEK293
- measurement notes: Amplification of Nav1.1-derived voltage-gated sodium current (Nav1.1 current), automated patch clamp (Test 1)
- Type: cell-based
- conditions used: Concentration for evaluation 10 μM; HEK293 cell line stably expressing human Nav1.1
Note to self: values exactly at 200% are t. So Nav1.1 current amplification rate (%) at or above 200% is t, below is f.

1) COc1nc2cc(NC(=O)Cn3nc(N4CCC(C)CC4)ccc3=O)ccc2o1; f
2) N#Cc1ccc(NC(=O)Cn2nc(C3CCCCC3)ccc2=O)cc1; f

Kindly determine if Nav1.1 current amplification rate (%) recorded for COc1cc(=O)n(CC(=O)Nc2ccc3ocnc3c2)nc1C1=CCC(C(F)(F)F)CC1 (racemic) is above or exactly 200%.
f

Kindly determine if Nav1.1 current amplification rate (%) recorded for CC1CC=C(c2ccc(=O)n(CC(=O)N3CCN(c4cncc(C(F)(F)F)c4)CC3)n2)CC1 (centres unmarked) is above or exactly 200%.
t

Kindly determine if Nav1.1 current amplification rate (%) recorded for COc1cc(C2=CCC(C)CC2)nn(CC(=O)N2CCc3c(N4CCOCC4)cccc32)c1=O (centres unmarked) is above or exactly 200%.
t

Kindly determine if Nav1.1 current amplification rate (%) recorded for CC1CCN(c2ccc(=O)n(CC(=O)Nc3ccc(C#N)cc3)n2)C1 (centres unmarked) is above or exactly 200%.
f

Kindly determine if Nav1.1 current amplification rate (%) recorded for O=C(Cn1nc(C2=CCC(F)(F)CC2)ccc1=O)Nc1ccn2ccnc2c1 is above or exactly 200%.
f

Kindly determine if Nav1.1 current amplification rate (%) recorded for N#Cc1ccc(NC(=O)Cn2nc(N3CCCCCCC3)ccc2=O)cc1 is above or exactly 200%.
t
